# SYSTEM: T1, Myo5, Q04439
# T1 sequence (Q04439 1072-1160, looked up): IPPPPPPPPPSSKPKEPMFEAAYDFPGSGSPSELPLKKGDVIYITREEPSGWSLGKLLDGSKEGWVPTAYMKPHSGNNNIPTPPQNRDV
# ASSAY_METHOD_TEXT: SPOT array
# TEST_PARAMETERS: median of control spots 471
Can you tell me SPOT intensity for the items I'm about to list?

The recorded SPOT intensity for entry "LFMKGTPEFPKSGFS" equals 48

The recorded SPOT intensity for entry "HGKRRAPLLLAKLDV" equals 0

The recorded SPOT intensity for entry "LASNSPPVYPKRIRH" equals 0

The recorded SPOT intensity for entry "RRRIAYPFYPFKKLG" equals 0

The recorded SPOT intensity for entry "SRQAIPPPVPNRPGG" equals 21

The recorded SPOT intensity for entry "SKSRLLIELPEGFFT" equals 0

The recorded SPOT intensity for entry "YHSRRHPLALGFKYV" equals 0

The recorded SPOT intensity for entry "RLSFFFPLDPAYIRN" equals 0

The recorded SPOT intensity for entry "MAMRPIPPLPTESEY" equals 27

The recorded SPOT intensity for entry "HAPPLPPTAPPPPSL" equals 279

The recorded SPOT intensity for entry "IKKRNKIRLPSGSPE" equals 0

The recorded SPOT intensity for entry "RRTRLRPPTPLSQLL" equals 0

The recorded SPOT intensity for entry "RKRRTHLRLPLIRSN" equals 0

The recorded SPOT intensity for entry "LLRRTIPKRPFYHVL" equals 0

The recorded SPOT intensity for entry "SSAAPPPPPRRATPE" equals 18

The recorded SPOT intensity for entry "VYTRTAFQIPGDDKI" equals 0

The recorded SPOT intensity for entry "LLLLFVPDSPYDPAI" equals 0

The recorded SPOT intensity for entry "GSKSGPPPRPKKPST" equals 0

The recorded SPOT intensity for entry "YLTRPLPSTPNEDSR" equals 0

The recorded SPOT intensity for entry "VAPPPLPNRQLPNLD" equals 59

The recorded SPOT intensity for entry "PKMLPIPSKPTLFDL" equals 52

The recorded SPOT intensity for entry "GKFIPSRPAPKPPSS" equals 593

The recorded SPOT intensity for entry "DFTLPPPPPPPGLDE" equals 306

The recorded SPOT intensity for entry "VFQFQMPTTPISTKM" equals 74

The recorded SPOT intensity for entry "DTFLPPPPPPPSNFE" equals 453

The recorded SPOT intensity for entry "TPRLSLPRLPNKHHW" equals 0

The recorded SPOT intensity for entry "LEFRAILFIPKRAPF" equals 9

The recorded SPOT intensity for entry "ANNQGPPNLPARDKS" equals 0

The recorded SPOT intensity for entry "SNRRPVPRRPSQPLN" equals 0

The recorded SPOT intensity for entry "LPPPPPPPPPPPLPQ" equals 325

The measurements presented in this section are drawn from paper PMC2756588.
